- Tested on: human β2GPI-dependent antiphospholipid antibody
- assay-protocol: Micropanning of mutant domain 1 phage, patient antibodies
- Type: binding
- setup-conditions: Table 7A, antibody 6701
property-label: μpan score
One number for each entry.

2D4: phage clone, domain 1 mutant M42T (protein) GRTCPKPDDLPFSTVVPLKTFYEPGEEITYSCKPGYVSRGGTRKFICPLTGLWPINTLKCTPRV | 3
2C3: phage clone, domain 1 mutant P54S (protein) GRTCPKPDDLPFSTVVPLKTFYEPGEEITYSCKPGYVSRGGMRKFICPLTGLWSINTLKCTPRV | 1
2A1: phage clone, domain 1 mutant T20S (protein) GRTCPKPDDLPFSTVVPLKSFYEPGEEITYSCKPGYVSRGGMRKFICPLTGLWPINTLKCTPRV | 3
B11: phage clone, domain 1 mutant M42K (protein) GRTCPKPDDLPFSTVVPLKTFYEPGEEITYSCKPGYVSRGGKRKFICPLTGLWPINTLKCTPRV | 3
2D12: phage clone, domain 1 mutant F45L (protein) GRTCPKPDDLPFSTVVPLKTFYEPGEEITYSCKPGYVSRGGMRKLICPLTGLWPINTLKCTPRV | 2
2B2: phage clone, domain 1 mutant V37E (protein) GRTCPKPDDLPFSTVVPLKTFYEPGEEITYSCKPGYESRGGMRKFICPLTGLWPINTLKCTPRV | 3

Please find the next molecule below.
Could you share which μpan score value was measured for A10: phage clone, domain 1 mutant D8G (protein) GRTCPKPGDLPFSTVVPLKTFYEPGEEITYSCKPGYVSRGGMRKFICPLTGLWPINTLKCTPRV ?
2
